- Assay Target: 5-hydroxytryptamine receptor 2A (Homo sapiens)
- Sequence (P28223 whole entry): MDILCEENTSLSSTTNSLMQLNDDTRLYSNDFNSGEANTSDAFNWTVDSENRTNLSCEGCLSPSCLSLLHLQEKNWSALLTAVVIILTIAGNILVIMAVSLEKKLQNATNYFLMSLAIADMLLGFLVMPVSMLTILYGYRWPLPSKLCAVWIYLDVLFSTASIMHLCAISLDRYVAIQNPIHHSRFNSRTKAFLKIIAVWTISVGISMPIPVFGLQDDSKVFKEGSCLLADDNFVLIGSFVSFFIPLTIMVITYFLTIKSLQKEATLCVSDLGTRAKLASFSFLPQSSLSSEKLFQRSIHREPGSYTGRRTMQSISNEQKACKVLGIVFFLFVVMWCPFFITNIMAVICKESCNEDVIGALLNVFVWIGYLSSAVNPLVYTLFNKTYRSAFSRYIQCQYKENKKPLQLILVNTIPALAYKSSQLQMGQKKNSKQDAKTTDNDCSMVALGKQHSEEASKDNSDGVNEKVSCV
Listing of entries alongside the reported pKi.
# log scale: pKi equals minus log10 of the concentration in mol/L

Item Smiles: CSc1cc2c(cc1C(F)(F)F)N(C(=O)Nc1cccnc1)CC2
pKi: 6.40
--
Item Smiles: Cc1cc2c(cc1Cl)N(C(=O)Nc1ccc(Oc3cccnc3C)nc1)CC2
pKi: 6.80

Next molecule, pKi to be filled in.
// recorded pKi for Cc1cc2c(cc1Cl)N(C(=O)Nc1cccnc1)CC2 : 6.80

* * *

- Assay Target: Cytochrome P450 2D6 (Homo sapiens)
- Sequence (P10635 whole entry): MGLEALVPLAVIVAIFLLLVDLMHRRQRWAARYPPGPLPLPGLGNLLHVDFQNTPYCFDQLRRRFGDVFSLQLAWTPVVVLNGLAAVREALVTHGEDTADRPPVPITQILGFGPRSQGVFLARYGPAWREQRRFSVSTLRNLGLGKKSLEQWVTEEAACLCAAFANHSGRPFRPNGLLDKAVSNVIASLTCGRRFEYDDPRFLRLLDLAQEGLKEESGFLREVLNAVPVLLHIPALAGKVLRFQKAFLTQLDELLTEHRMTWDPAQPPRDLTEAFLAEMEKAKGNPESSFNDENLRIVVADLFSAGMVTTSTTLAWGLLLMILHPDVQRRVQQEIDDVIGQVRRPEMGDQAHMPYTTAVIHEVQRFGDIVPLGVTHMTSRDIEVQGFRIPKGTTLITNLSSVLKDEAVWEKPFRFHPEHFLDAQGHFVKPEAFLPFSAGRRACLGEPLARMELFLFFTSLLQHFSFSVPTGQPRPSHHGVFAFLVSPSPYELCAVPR
Property: IC50 (µM)
Respond numerically; units are µM and should not be typed.

Tested on Cytochrome P450 2D6 (Homo sapiens): Cn1ccc2cc3c(cc21)CCN3C(=O)Nc1cccnc1 . Observed IC50: 30

* * *

- Assay Target: Cytochrome P450 3A4 (Homo sapiens)
- Sequence (P08684 whole entry): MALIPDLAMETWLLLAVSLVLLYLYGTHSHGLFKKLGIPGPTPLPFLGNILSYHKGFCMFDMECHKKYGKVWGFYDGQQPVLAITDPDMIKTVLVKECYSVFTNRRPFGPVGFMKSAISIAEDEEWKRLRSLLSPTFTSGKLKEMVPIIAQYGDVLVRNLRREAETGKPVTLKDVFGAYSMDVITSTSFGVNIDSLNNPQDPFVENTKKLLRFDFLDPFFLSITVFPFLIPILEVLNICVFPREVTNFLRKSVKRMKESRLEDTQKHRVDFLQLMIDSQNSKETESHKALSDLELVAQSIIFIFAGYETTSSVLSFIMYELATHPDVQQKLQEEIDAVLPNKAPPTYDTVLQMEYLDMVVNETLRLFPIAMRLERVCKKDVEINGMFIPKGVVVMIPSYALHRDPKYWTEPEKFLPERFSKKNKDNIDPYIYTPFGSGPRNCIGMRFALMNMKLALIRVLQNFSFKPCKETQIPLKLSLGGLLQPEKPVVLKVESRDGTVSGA
- Assay Procedure: Inhibition of heterologously expressed human Cytochrome P450 3A at 1 uM
Property: IC50

// recorded IC50 for CSc1cc2c(cc1C(F)(F)F)N(C(=O)Nc1cccnc1)CC2 : > 100 µM

* * *

- Assay Target: UniProt:P33261
- Sequence (P33261 whole entry, looked up): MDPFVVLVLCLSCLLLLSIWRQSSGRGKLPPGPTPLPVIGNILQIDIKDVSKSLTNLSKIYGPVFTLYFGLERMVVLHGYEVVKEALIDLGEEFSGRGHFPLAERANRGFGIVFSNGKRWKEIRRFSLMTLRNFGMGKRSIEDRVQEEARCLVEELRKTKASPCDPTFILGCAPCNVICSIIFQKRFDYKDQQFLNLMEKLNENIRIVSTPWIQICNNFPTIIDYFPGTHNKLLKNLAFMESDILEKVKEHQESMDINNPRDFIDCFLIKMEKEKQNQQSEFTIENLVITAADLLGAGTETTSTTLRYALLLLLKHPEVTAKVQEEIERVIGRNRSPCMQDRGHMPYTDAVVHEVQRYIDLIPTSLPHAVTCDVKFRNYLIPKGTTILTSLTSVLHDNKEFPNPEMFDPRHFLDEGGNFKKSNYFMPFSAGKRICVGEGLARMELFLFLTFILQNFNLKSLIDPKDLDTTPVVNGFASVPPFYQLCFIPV
- Assay Procedure: Inhibition of heterologously expressed human Cytochrome P450 2C19 at 100 uM
pIC50: −log10 of the molar value.
Property: pIC50

// recorded pIC50 for Cc1cc2c(cc1Cl)N(C(=O)Nc1ccc(Oc3cccnc3C)nc1)CC2 [SB-242084] : < 4.00

* * *

- Assay Target: Cytochrome P450 3A4 (Homo sapiens)
- Assay Procedure: Inhibition of heterologously expressed human Cytochrome P450 3A at 1 uM
- Format: ADME
Property: IC50

// recorded IC50 for Cc1cc2c(cc1Cl)N(C(=O)Nc1ccc(Oc3cccnc3C)nc1)CC2 : > 100 µM

* * *

Listing of entries alongside the reported ED50.
- Tested on: Rattus norvegicus
- Assay Procedure: Mean dose required to reverse m-chlorophenyl-piperazine (mCPP) induced hypolocomotion (7 mg/kg ip administered 30 min pretest)
- Format: functional
- Condition Notes: 0.5 h, read-out: ID50 (the source's name)
Respond numerically; units are mg/kg and should not be typed.

These solved cases illustrate the format of a correct answer.
Item Smiles: CSc1cc2c(cc1C(F)(F)F)N(C(=O)Nc1cccnc1)CC2
Result Number: 1.5
//
Item Smiles: CSc1cc2c(cc1Cl)N(C(=O)Nc1cccnc1)CC2
Result Number: 10
//
Item Smiles: Cn1ccc2cc3c(cc21)CCN3C(=O)Nc1cccnc1
Result Number: 5.5
//
Item Smiles: Cc1cc2c(cc1Cl)N(C(=O)Nc1cccnc1)CC2
Result Number: 0.6

Next compound, ED50 to be filled in.
// recorded ED50 for Cc1cc2c(cc1Cl)N(C(=O)Nc1ccc(Oc3cccnc3C)nc1)CC2 : 2

* * *

- Assay Target: 5-hydroxytryptamine receptor 2B (Homo sapiens)
- Sequence (P41595 whole entry): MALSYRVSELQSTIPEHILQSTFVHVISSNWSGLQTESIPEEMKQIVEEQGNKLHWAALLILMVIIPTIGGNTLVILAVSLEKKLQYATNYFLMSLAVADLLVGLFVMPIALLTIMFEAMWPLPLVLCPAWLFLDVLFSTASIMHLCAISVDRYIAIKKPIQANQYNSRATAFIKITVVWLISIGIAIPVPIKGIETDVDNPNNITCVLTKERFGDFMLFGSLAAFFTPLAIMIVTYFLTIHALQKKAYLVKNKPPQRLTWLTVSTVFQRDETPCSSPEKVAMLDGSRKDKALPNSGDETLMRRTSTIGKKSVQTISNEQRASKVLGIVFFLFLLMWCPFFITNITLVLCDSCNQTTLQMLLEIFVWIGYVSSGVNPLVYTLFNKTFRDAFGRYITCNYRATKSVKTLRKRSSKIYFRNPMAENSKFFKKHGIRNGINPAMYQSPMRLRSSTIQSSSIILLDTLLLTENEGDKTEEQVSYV
Listing of entries alongside the reported pKi.
# log scale: pKi equals minus log10 of the concentration in mol/L

These solved cases illustrate the format of a correct answer.
Item Smiles: Cn1ccc2cc3c(cc21)CCN3C(=O)Nc1cccnc1
Assay Target: 5-hydroxytryptamine receptor 2B (Homo sapiens)
Property: pKi
Result Number: 7.60
--
Item Smiles: Cc1cc2c(cc1Cl)N(C(=O)Nc1ccc(Oc3cccnc3C)nc1)CC2
Assay Target: 5-hydroxytryptamine receptor 2B (Homo sapiens)
Property: pKi
Result Number: 7.00

Next compound, pKi to be filled in.
// recorded pKi for CSc1cc2c(cc1C(F)(F)F)N(C(=O)Nc1cccnc1)CC2 : 7.90

* * *

- Assay Target: Cytochrome P450 1A2 (Homo sapiens, UniProt P05177)
- Sequence (P05177 whole entry): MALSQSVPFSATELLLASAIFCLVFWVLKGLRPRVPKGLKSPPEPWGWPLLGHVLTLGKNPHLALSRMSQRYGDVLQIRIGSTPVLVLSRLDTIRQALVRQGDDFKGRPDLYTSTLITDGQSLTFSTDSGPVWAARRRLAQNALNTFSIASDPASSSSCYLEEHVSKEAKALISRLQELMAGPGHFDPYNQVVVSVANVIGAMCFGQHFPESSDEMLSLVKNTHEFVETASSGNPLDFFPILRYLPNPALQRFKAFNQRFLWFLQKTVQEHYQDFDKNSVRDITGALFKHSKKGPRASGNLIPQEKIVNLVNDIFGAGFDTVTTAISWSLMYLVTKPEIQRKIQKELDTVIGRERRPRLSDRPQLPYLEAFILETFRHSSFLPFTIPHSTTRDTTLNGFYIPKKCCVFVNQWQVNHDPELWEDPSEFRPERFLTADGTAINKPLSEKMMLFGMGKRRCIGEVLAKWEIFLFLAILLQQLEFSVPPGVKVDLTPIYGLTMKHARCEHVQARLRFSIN
Property: IC50 (nM)
Respond numerically; units are nM and should not be typed.

Item Smiles: Cn1ccc2cc3c(cc21)CCN3C(=O)Nc1cccnc1
Assay Target: Cytochrome P450 1A2 (Homo sapiens, UniProt P05177)
IC50 [nM]: 50

Next compound, IC50 to be filled in.
Tested on Cytochrome P450 1A2 (Homo sapiens, UniProt P05177): CSc1cc2c(cc1C(F)(F)F)N(C(=O)Nc1cccnc1)CC2 . Observed IC50: 13

* * *

Listing of entries alongside the reported pKi.
- Assay Target: 5-hydroxytryptamine receptor 2C (Homo sapiens, UniProt P28335)
- Sequence (P28335 whole entry): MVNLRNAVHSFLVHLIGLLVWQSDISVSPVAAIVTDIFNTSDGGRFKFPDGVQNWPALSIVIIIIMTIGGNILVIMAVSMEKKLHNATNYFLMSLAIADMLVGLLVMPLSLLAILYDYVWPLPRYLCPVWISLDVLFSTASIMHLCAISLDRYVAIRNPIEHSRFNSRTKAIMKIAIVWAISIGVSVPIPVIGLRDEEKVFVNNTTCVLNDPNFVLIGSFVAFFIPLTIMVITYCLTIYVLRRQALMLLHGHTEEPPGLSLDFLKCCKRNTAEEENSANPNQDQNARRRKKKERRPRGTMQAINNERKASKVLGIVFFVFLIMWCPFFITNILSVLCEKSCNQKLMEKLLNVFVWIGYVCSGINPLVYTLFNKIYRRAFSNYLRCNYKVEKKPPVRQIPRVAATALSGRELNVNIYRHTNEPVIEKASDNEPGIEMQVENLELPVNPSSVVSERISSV
# log scale: pKi equals minus log10 of the concentration in mol/L

Compound: Cc1cc2c(cc1Cl)N(C(=O)Nc1cccnc1)CC2
pKi: 8.20
--
Compound: Cc1cc2c(cc1Cl)N(C(=O)Nc1ccc(Oc3cccnc3C)nc1)CC2 [SB-242084]
pKi: 9.00

Next compound, pKi to be filled in.
Tested on 5-hydroxytryptamine receptor 2C (Homo sapiens, UniProt P28335): CSc1cc2c(cc1C(F)(F)F)N(C(=O)Nc1cccnc1)CC2 . Observed pKi: 8.60
